biological target: T1, recombinant purified FRα (ECL assay calibrator) (human, UniProt P15328 25-234); experiment: ECL sandwich on FRα, signal to background; capture 28H12.G9; binder = detection Ab
T1 construct: Calibrator of the ECL sandwich assays; also called FRα calibrator; FRα standard
T1 sequence (P15328 25-234 limits assumed): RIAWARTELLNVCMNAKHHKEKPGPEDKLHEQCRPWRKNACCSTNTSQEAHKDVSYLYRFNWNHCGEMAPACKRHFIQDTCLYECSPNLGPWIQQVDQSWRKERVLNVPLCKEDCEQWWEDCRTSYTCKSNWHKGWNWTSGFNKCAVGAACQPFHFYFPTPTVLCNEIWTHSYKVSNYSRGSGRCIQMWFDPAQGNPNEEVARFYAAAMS
Reported Endpoint: Average of S/B

Query: I have this binder here, Monoclonal antibody 1C6.E12.G8 (antibody, mouse IgG1, V domains shown, Murine IgG1 kappa from hybridoma; also called ATCC PTA-123091) VH: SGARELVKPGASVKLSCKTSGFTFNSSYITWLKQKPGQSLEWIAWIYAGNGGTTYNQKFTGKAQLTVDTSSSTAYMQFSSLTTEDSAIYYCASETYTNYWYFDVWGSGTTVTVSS VL: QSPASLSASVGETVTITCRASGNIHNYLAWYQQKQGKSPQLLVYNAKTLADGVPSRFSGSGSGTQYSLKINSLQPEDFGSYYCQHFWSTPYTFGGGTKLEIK , and I need its recorded Average of S/B.
Reply: 1

Query: I have this binder here, Monoclonal antibody 1D2.D8.G10 (antibody, mouse IgG1, V domains shown, Murine IgG1 kappa from hybridoma; also called 1D2.D8.G0; ATCC PTA-123098) VH: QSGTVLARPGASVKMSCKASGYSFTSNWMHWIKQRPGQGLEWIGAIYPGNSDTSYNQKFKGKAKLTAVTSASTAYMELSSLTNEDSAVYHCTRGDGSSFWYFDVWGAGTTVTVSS VL: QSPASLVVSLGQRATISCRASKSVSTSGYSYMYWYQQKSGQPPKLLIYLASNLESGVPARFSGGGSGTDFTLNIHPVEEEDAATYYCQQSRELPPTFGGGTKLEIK , and I need its recorded Average of S/B.
Reply: 1
